- RECORDED_CONDITIONS: in acetone, 313.15 K
OUTCOME_MEASURE: solubility (mole fraction)

[
  {
    "STRUCTURE_SMILES": "N#CNC(=N)N",
    "MEASURED": 0.0136
  }
]

---

- RECORDED_CONDITIONS: in methanol, 318.15 K
OUTCOME_MEASURE: solubility (mole fraction)

[
  {
    "STRUCTURE_SMILES": "N#CNC(=N)N",
    "OUTCOME_MEASURE": "solubility (mole fraction)",
    "MEASURED": 0.032
  }
]

---

- RECORDED_CONDITIONS: in water, 318.15 K
OUTCOME_MEASURE: solubility (mole fraction)

[
  {
    "STRUCTURE_SMILES": "N#CNC(=N)N",
    "OUTCOME_MEASURE": "solubility (mole fraction)",
    "MEASURED": 0.021
  }
]

---

- RECORDED_CONDITIONS: in water, 313.15 K

[
  {
    "STRUCTURE_SMILES": "N#CNC(=N)N",
    "solubility (mole fraction)": 0.0172
  }
]

---

- RECORDED_CONDITIONS: in water, 303.15 K

[
  {
    "STRUCTURE_SMILES": "N#CNC(=N)N",
    "solubility (mole fraction)": 0.0114
  }
]

---

- RECORDED_CONDITIONS: in methanol, 308.15 K

[
  {
    "STRUCTURE_SMILES": "N#CNC(=N)N",
    "solubility (mole fraction)": 0.028
  }
]

---

- RECORDED_CONDITIONS: in methanol, 303.15 K

[
  {
    "STRUCTURE_SMILES": "N#CNC(=N)N",
    "solubility (mole fraction)": 0.0264
  }
]

---

- RECORDED_CONDITIONS: in ethanol, 293.15 K

[
  {
    "STRUCTURE_SMILES": "N#CNC(=N)N",
    "solubility (mole fraction)": 0.00493
  }
]

---

- RECORDED_CONDITIONS: in water, 308.15 K

[
  {
    "STRUCTURE_SMILES": "N#CNC(=N)N",
    "solubility (mole fraction)": 0.0141
  }
]

---

- RECORDED_CONDITIONS: in DMF, 308.15 K
OUTCOME_MEASURE: solubility (mole fraction)

[
  {
    "STRUCTURE_SMILES": "N#CNC(=N)N",
    "MEASURED": 0.248
  }
]

---

- RECORDED_CONDITIONS: in ethanol, 308.15 K

[
  {
    "STRUCTURE_SMILES": "N#CNC(=N)N",
    "solubility (mole fraction)": 0.00738
  }
]

---

- RECORDED_CONDITIONS: in methanol, 283.15 K

[
  {
    "STRUCTURE_SMILES": "N#CNC(=N)N",
    "solubility (mole fraction)": 0.0162
  }
]

---

- RECORDED_CONDITIONS: in water, 293.15 K

[
  {
    "STRUCTURE_SMILES": "N#CNC(=N)N",
    "solubility (mole fraction)": 0.00707
  }
]

All values here come from BigSolDB 2.1.
